Documented Kd across a set of variants
B1: GFP aptamer (parent)
chain: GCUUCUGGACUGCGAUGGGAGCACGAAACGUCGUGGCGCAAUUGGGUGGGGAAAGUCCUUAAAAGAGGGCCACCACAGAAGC

# Variants of: B1
# assay-text: HiTS-RAP
# reported-conditions: with EGFP
The answer is to be given in nM; state only the numeric part.

Some solved entries appear below for comparison.
C58U
1.21
U11G
3.81
C37U A77G
2.53

Now turn to the next variant.
Query: What value of measured Kd is listed for A23G ?
Response: 5.87
